Target: UniProt O15382
Sequence (O15382 28-392): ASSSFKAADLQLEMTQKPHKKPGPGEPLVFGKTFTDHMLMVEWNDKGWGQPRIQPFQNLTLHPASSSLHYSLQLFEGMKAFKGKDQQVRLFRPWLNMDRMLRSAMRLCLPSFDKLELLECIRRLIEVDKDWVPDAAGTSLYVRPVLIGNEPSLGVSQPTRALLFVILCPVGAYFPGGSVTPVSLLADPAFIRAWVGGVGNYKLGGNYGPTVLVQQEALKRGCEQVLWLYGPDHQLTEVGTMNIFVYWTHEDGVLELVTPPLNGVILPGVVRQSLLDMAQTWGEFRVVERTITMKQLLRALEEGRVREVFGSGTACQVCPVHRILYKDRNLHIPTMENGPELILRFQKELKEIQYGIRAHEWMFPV
Assay: BCAT2 in vitro cell inhibition using engineered A549 cells (KMV cell assay, 13C6-KMV by LC-MS/MS)
Type: cell-based
Design: The result was an engineered A549 cell line that expressed endogenous BCAT2; endogenous in cells; host or cells: A549 cells with MUT and BCAT1 knocked out by CRISPR/CAS9
Details: average where tested multiple times
IC50 values by entry

Record excerpt, results attached:
>>> obs_value("CC(=O)N1CC(NC(=O)c2ccc(Br)s2)CC(n2c(-c3ccccc3F)nc3cnc(-c4ncco4)cc32)C1 (centres unmarked) [Example 118]")
"≤ 100 nM"
>>> obs_value("O=C(NC1CCCC(n2c(-c3ncccc3F)nc3cnc(-c4nnco4)cc32)C1)c1ccc(Br)s1 (centres unmarked) [Example 2]")
"100 to 500 nM"
>>> obs_value("O=C(N[C@H]1C[C@H](O)C[C@@H](n2c(-c3ccccc3F)nc3cnc(-c4ccn[nH]4)cc32)C1)c1ncc(Cl)s1 (single isomer, unassigned) [Example 258]")
"≤ 100 nM"
>>> obs_value("CC(C)Cc1nc2cnc(-c3nc(Cl)cs3)cc2n1[C@@H]1CCC[C@H](NC(=O)c2ncc(Cl)s2)C1 [Example 329]")
"500 to 1000 nM"

# input Find the measured IC50 of Cc1coc(-c2cc3c(cn2)nc(CC(C)C)n3C2CCCC(NC(=O)c3ncc(Cl)s3)C2O)n1 (centres unmarked) [Example 211] with UniProt O15382 as test system.
# output 100 to 500 nM
